Biological target: Na^+,K^+ -ATPase (Homo sapiens)
Construct: Na^+,K^+ -ATPase receptor purified according to Jorghensen; from tissue
Experiment: displacement of the specific 3H-ouabain binding from the purified Na+,K+-ATPase receptor
Conditions: 3H-ouabain displacement, purified Na+,K+-ATPase; read-out: Binding ^3 H-Ouab. Displacement log. IC50 (converted)
VALUE KIND: IC50

Known results for compounds:
# COMPOUND, OBSERVED VALUE
records = [
    ("C[C@]12CC[C@H](SCCN3CCCC3)C[C@H]1CC[C@@H]1[C@@H]2CC[C@]2(C)[C@@H](C3=CC(=O)OC3)CC[C@@H]12 [I-a]", "3.16 µM"),
    ("C[C@]12CC[C@H]3[C@@H](CC=C4C[C@@H](SCCCN)CC[C@@]43C)[C@@H]1CC[C@@H]2C1=CC(=O)OC1 [I-g]", "1 µM"),
]

Next, consider the following compound.
Q: Quick one: give measured IC50 for C[C@]12CC[C@H](SCC(O)CN3CCCC3)C[C@H]1CC[C@@H]1[C@@H]2CC[C@]2(C)[C@@H](C3=CC(=O)OC3)CC[C@@H]12 (stereo partly drawn) [I-e]
A: 2 µM

###

Known IC50 of a selection of compounds
Target: Na^+,K^+ -ATPase (Homo sapiens, UniProt P05023)
Construct: Na^+,K^+ -ATPase receptor purified according to Jorghensen; from tissue
Assay: inhibition of the activity of the purified Na+,K+-ATPase (% hydrolysis of 32P-ATP)
Format: biochemical
Give the value, in units of µM, as a plain number.

# COMPOUND, OBSERVED VALUE
records = [
    ("C[C@]12CC[C@H](SCCCN3CCNCC3)C[C@H]1CC[C@@H]1[C@@H]2CC[C@]2(C)[C@@H](C3=CC(=O)OC3)CC[C@@H]12 [I-c]", 1.58),
    ("C[C@]12CC[C@H](SCCCN)C[C@H]1CC[C@@H]1[C@@H]2CC[C@]2(C)[C@@H](C3=CC(=O)OC3)CC[C@@H]12 [I-d]", 2),
    ("C[C@]12CC[C@H](SCCCN)C[C@@H]1CC[C@@H]1[C@@H]2CC[C@]2(C)[C@@H](C3=CC(=O)OC3)CC[C@@H]12 [I-h]", 3.98),
    ("C[C@]12CC[C@H](SCCN3CCCC3)C[C@H]1CC[C@@H]1[C@@H]2CC[C@]2(C)[C@@H](C3=CC(=O)OC3)CC[C@@H]12 [I-a]", 5.01),
]

Next, consider the following compound.
Q: Quick one: give measured IC50 for CN(C)CCCS[C@H]1CC[C@@]2(C)[C@H](CC[C@@H]3[C@@H]2CC[C@]2(C)[C@@H](C4=CC(=O)OC4)CC[C@@H]32)C1 [I-b]
A: 3.16
